Origin of measurements: ChEMBL document CHEMBL5465560

biological target: Tyrosine-protein kinase receptor UFO (Homo sapiens, UniProt P30530); experiment: Selectivity interaction (Kinase panel (33PanQinase(R) Activity Assay)) EUB0000877a AXL
Sequence (P30530 whole entry): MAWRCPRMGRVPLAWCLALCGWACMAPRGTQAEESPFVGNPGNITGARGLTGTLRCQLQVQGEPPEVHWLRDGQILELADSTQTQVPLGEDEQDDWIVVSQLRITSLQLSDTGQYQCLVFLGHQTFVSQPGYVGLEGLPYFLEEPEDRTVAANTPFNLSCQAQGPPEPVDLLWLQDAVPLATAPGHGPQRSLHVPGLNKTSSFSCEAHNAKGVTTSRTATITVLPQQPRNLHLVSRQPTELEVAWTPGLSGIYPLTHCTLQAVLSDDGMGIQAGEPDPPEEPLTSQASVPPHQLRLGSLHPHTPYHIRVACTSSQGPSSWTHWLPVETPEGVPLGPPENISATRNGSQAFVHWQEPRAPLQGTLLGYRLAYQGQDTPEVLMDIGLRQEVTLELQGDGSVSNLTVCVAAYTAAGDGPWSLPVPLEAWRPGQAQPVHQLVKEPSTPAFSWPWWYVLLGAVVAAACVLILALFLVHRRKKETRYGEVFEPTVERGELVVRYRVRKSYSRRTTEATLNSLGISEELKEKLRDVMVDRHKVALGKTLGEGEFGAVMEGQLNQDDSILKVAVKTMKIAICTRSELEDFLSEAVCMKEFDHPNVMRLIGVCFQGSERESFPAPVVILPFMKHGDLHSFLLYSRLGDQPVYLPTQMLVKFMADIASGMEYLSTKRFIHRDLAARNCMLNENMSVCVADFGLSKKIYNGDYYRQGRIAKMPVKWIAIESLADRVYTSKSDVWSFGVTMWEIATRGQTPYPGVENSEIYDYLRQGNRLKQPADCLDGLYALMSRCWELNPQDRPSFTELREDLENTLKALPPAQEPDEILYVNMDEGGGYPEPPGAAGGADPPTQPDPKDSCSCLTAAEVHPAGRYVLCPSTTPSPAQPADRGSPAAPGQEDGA
REPORTED_METRIC: IC50

So for `CCC(=O)N1CC[C@H](Nc2ncnc3c2CN(c2cnc(OC)c(C(F)(F)F)c2)CC3)C1` , the logged IC50 turned out to be > 10 µM

###

Target: Histone-arginine methyltransferase CARM1 (Homo sapiens, UniProt Q86X55)
Sequence (Q86X55 whole entry): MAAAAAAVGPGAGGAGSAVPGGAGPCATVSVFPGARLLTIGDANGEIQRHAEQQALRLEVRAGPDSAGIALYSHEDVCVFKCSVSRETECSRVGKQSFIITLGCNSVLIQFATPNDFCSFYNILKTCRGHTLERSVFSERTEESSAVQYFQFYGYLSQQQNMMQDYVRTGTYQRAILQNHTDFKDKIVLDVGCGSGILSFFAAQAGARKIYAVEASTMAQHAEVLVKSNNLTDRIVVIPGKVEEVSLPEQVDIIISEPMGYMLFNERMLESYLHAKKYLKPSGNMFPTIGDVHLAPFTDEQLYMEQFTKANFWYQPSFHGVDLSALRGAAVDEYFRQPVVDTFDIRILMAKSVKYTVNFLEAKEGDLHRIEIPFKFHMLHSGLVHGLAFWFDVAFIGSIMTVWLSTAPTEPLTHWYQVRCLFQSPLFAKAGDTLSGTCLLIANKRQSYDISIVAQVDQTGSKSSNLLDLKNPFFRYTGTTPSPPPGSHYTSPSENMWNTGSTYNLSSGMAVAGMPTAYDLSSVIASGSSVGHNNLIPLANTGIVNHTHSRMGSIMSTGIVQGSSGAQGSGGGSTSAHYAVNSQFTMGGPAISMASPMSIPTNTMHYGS
Test: Selectivity interaction (Western blot assay (PRMT4 dependent BAF155 asymmetric arginine dimethylation)) EUB0000236b CARM1
REPORTED_METRIC: EC50

Value of measured EC50 for the entry `CC1=C(C)C(=O)C(C(C)(C)CC(=O)N(CCCCSC[C@H]2O[C@@H](n3cnc4c(N)ncnc43)[C@@H]3OC(C)(C)O[C@@H]32)Cc2cccc(-c3ccc(Cl)cc3)c2)=C(C)C1=O` : > 5 nM

###

Target: Type-1 angiotensin II receptor (Homo sapiens, UniProt P30556)
Sequence (P30556 whole entry): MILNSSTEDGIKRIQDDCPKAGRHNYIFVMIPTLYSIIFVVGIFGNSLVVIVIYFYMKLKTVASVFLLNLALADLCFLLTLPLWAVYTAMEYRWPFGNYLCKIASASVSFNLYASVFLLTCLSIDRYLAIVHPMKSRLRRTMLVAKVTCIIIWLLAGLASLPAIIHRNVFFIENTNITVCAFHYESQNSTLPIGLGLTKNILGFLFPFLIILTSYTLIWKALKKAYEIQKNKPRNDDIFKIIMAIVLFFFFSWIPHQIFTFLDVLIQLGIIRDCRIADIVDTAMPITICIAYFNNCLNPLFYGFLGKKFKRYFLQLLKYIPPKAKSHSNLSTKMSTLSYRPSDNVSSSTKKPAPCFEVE
Test: Selectivity interaction (Angiotensin II AT1 receptor binding assay, human recombinant ) EUB0000877a AGTR1
REPORTED_METRIC: IC50

IC50 for `CCC(=O)N1CC[C@H](Nc2ncnc3c2CN(c2cnc(OC)c(C(F)(F)F)c2)CC3)C1` is > 30 µM

###

biological target: MAP kinase-activated protein kinase 5 (Homo sapiens); test: Selectivity interaction (Kinase panel (33PanQinase(R) Activity Assay)) EUB0000877a MAPKAPK5
REPORTED_METRIC: IC50

Noted for `CCC(=O)N1CC[C@H](Nc2ncnc3c2CN(c2cnc(OC)c(C(F)(F)F)c2)CC3)C1` : its IC50 reads > 10 µM

###

target: Dual specificity tyrosine-phosphorylation-regulated kinase 3 (Homo sapiens, UniProt O43781); experiment: Selectivity interaction (Enzymatic assay (Eurofins)) EUB0001049a DYRK3
pIC50: −log10 of the molar value.
REPORTED_METRIC: pIC50

Summary for this compound, `COc1cc(Nc2nc(C)cc(-c3cnn4nc(OC)ccc34)n2)cc(C(F)(F)F)c1` : pIC50 is < 5.00

###

molecular target: KCNE1 (Homo sapiens, UniProt P15382); test: Selectivity interaction (Panel of kinases, GPCRs, ion channels and transporters (enzymatic assay)) EUB0000223bCl KCNE1
REPORTED_METRIC: XC50

Lab book: XC50 of `COc1cc(C(=O)N2CC[C@@H](O)[C@@H](N)C2)cc2nc(-c3cc4ccccc4n3CC3CC3)n(C)c12` noted as > 25.1 µM

###

REPORTED_METRIC: IC50

# value of IC50, MAP kinase-activated protein kinase 2 (Homo sapiens, UniProt P49137), item `CCc1cccc(CC)c1NC(=O)c1nn(C)c2c1CCc1cnc(Nc3ccc(C(=O)NC4CCN(C)CC4)cc3OC(F)(F)F)nc1-2` = > 10 µM

###

target: hERG (KCNH2) (Homo sapiens); experiment: Selectivity interaction (Panel of kinases, GPCRs, ion channels and transporters (enzymatic assay)) EUB0000266bCl KCNH2
REPORTED_METRIC: XC50 (µM)
Lab book: enter the figure in µM, no units written.

Quick note, XC50 for CCn1c(-c2nc3cc(C(=O)N4CCCC(N)C4)ccc3n2C)cc2ccccc21 (stereo unspecified) landed at 6.31

###

REPORTED_METRIC: IC50

Item: `CCc1cccc(CC)c1NC(=O)c1nn(C)c2c1CCc1cnc(Nc3ccc(C(=O)NC4CCN(C)CC4)cc3OC(F)(F)F)nc1-2` | System: Serine/threonine-protein kinase 26 (Homo sapiens) | IC50: > 10 µM

###

target: Tyrosine-protein kinase JAK1 (Homo sapiens)
Sequence (P23458 whole entry): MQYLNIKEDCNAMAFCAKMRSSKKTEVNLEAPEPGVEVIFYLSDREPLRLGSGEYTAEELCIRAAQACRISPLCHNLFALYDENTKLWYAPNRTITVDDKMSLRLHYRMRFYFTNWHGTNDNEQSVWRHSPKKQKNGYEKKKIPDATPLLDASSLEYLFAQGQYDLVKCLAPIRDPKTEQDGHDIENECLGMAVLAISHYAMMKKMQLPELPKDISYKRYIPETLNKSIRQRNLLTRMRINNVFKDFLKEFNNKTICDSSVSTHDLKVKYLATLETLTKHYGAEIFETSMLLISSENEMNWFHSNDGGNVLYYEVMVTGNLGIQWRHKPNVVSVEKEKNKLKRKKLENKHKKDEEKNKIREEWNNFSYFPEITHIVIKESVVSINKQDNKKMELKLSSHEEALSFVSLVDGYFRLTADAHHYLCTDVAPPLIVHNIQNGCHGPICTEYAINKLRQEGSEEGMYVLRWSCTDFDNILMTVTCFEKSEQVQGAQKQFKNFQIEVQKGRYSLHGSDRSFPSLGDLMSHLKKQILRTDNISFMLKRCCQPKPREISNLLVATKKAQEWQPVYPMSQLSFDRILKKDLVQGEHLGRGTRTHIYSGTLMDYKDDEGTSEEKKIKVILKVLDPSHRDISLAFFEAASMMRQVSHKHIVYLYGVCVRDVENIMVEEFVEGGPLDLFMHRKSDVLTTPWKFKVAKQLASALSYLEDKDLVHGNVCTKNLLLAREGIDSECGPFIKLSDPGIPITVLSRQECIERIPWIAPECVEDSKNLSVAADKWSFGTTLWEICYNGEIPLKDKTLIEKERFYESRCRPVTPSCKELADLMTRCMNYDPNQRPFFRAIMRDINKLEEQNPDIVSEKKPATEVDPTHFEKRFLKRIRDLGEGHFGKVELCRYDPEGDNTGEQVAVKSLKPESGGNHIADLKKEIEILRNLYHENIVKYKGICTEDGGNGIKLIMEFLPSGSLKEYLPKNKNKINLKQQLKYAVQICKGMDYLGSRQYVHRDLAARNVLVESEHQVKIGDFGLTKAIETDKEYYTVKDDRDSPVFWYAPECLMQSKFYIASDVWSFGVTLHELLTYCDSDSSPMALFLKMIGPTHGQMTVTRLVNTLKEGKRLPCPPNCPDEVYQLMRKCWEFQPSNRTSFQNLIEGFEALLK
REPORTED_METRIC: IC50

Sample `CCc1cccc(CC)c1NC(=O)c1nn(C)c2c1CCc1cnc(Nc3ccc(C(=O)NC4CCN(C)CC4)cc3OC(F)(F)F)nc1-2` ; IC50 observed: > 10 µM

###

molecular target: Homeodomain-interacting protein kinase 4 (Homo sapiens, UniProt Q8NE63); assay: Selectivity interaction (NanoBRET assay (using HEK293T cells)) EUB0000008b HIPK4; assay type: cell-based, HEK-293T
Sequence (Q8NE63 whole entry): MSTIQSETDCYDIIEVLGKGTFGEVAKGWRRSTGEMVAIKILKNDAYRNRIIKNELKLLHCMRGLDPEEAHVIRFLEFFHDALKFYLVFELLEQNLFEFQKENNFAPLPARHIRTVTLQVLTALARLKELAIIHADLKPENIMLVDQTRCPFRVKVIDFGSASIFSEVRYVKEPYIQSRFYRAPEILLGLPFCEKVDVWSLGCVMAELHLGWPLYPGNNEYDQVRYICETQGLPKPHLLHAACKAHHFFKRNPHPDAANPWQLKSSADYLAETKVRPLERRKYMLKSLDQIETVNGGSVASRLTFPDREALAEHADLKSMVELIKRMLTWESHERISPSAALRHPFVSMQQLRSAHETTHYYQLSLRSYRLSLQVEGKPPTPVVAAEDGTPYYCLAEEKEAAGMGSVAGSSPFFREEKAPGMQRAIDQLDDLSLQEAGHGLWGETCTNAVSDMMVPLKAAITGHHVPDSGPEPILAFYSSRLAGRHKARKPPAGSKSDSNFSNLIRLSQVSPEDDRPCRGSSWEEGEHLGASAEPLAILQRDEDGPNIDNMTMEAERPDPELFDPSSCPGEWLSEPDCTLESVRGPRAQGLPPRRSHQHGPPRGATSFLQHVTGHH
REPORTED_METRIC: IC50 (µM)
Use µM as the unit, but write only the number.

The compound `Cn1cc(-c2ccc3occ(-c4cccc(-c5ccncc5)c4)c3n2)cn1` showed IC50 equal to 5.41

###

biological target: L-type calcium channel Cav1.2 (CACNA1C) (Homo sapiens, UniProt Q13936); experiment: Selectivity interaction (Eurofins CEREP Diversity Profile (receptors and ion channels)) EUB0000279b CACNA1C; details: at 10 µM, read-out: % of control
Sequence (Q13936 whole entry): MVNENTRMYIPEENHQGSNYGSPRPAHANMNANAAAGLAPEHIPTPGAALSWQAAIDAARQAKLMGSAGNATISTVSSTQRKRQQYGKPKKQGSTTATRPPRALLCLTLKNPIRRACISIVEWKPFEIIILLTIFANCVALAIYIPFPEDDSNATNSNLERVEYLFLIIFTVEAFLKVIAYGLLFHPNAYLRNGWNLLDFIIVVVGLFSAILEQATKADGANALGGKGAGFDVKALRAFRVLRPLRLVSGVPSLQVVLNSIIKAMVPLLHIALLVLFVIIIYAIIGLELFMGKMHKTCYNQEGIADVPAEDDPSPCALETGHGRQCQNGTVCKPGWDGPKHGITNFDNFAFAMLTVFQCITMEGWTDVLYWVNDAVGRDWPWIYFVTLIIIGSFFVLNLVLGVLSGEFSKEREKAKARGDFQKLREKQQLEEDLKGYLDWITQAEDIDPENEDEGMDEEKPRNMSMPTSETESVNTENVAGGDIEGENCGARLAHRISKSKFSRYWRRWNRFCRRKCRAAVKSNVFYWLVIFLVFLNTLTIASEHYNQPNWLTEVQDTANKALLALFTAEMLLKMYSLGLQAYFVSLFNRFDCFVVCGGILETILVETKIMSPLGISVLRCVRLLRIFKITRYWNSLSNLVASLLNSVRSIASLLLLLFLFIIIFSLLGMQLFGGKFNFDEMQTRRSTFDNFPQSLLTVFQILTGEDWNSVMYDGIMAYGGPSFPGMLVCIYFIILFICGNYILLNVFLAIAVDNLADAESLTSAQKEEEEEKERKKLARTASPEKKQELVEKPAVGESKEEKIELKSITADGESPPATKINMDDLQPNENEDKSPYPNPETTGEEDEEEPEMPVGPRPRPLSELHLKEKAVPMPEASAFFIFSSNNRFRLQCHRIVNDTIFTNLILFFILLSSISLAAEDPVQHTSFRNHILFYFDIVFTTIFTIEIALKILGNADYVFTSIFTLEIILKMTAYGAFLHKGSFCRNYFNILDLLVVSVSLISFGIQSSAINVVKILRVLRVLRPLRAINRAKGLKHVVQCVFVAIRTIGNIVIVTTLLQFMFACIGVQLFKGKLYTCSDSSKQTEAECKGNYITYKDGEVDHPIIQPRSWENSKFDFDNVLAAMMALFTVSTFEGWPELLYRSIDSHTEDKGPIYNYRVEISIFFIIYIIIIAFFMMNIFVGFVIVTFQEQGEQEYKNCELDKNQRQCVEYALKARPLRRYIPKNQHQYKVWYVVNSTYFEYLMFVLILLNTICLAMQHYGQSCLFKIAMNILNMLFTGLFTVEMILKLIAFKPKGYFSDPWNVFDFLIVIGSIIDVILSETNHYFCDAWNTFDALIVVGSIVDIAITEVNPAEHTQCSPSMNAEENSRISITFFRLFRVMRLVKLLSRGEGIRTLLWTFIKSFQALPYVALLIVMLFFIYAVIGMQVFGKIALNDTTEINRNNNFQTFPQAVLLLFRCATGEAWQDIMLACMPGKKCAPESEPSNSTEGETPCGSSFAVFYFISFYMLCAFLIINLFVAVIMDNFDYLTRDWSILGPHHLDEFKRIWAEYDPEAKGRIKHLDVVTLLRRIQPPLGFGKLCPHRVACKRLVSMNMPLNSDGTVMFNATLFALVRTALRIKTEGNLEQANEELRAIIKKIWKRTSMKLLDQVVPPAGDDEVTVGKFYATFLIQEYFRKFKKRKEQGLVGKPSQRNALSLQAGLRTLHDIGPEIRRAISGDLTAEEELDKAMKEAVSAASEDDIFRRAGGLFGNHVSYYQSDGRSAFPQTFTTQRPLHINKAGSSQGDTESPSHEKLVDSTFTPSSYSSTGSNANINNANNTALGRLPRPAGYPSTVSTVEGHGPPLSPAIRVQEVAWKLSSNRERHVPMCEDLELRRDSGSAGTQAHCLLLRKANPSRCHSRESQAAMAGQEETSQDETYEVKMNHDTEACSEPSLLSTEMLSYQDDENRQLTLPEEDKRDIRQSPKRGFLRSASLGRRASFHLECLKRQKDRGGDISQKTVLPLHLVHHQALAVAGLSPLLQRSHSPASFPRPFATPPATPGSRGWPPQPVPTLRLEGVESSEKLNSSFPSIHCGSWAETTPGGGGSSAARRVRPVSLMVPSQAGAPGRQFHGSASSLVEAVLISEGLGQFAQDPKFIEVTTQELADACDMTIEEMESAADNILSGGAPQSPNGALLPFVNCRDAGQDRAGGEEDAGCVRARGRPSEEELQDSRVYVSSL
REPORTED_METRIC: activity (%)
Please state the figure in %; there is no need to write the unit.

Summary line: `CC(=O)c1cc(-c2ccccc2OCC2CC2)c2ncccn12` , L-type calcium channel Cav1.2 (CACNA1C) (Homo sapiens, UniProt Q13936), reported activity = 21

###

target: Calcium/calmodulin-dependent protein kinase type II subunit alpha (Homo sapiens); experiment: Selectivity interaction (Kinase panel (Enzymatic assay, microfluidic mobility shift readout, Caliper lifesciences, conc. ATP = Km for each kinase)) EUB0000678a CAMK2A
REPORTED_METRIC: IC50

Noted IC50 for `CCN1CCN(c2ccc(Nc3cc(N(C)C(=O)Nc4c(Cl)c(OC)cc(OC)c4Cl)ncn3)cc2)CC1` , tested on Calcium/calmodulin-dependent protein kinase type II subunit alpha (Homo sapiens): > 10 µM

###

assay: Selectivity interaction (Kinase panel (Enzyme activity assay)) EUB0000612a IGF1
REPORTED_METRIC: IC50

Per the records, this compound ( `CCc1cccc(CC)c1NC(=O)c1nn(C)c2c1CCc1cnc(Nc3ccc(C(=O)NC4CCN(C)CC4)cc3OC(F)(F)F)nc1-2` ) has IC50 equal to > 10 µM

###

molecular target: Protein-arginine deiminase type-4 (Homo sapiens, UniProt Q9UM07); assay: Selectivity interaction (Fluorescence polarization ligand binding assay (2 mM calcium)) EUB0000266bCl PADI4
REPORTED_METRIC: IC50 (µM)
Numbers only here, please. The scale is µM.

For CCn1c(-c2nc3cc(C(=O)N4CCCC(N)C4)ccc3n2C)cc2ccccc21 (stereo unspecified) on Protein-arginine deiminase type-4 (Homo sapiens, UniProt Q9UM07), measured IC50 was 0.25

###

target: UniProt:P80404; experiment: Selectivity interaction (GPCR panel (PDSP screen)) EUB0000311b ABAT
REPORTED_METRIC: Ki (nM)
Answer with a number only, understood to be in nM.

Input CCc1ccccc1C(=O)Nc1n[nH]c2c(C)c(F)c(C3C(C#N)=C(C)N(C)C(C)=C3C#N)cc12 [BAY-3827] . Output Ki: 222

###

biological target: Cyclin-G-associated kinase (Homo sapiens); test: Selectivity interaction (Competition-binding assay (DiscoverX)) EUB0000229b GAK
REPORTED_METRIC: Kd (µM)
Respond numerically; units are µM and should not be typed.

The measured Kd associated with `COc1cc(N(C)c2ccnc3ccc(C(F)(F)F)cc23)cc(OC)c1OC` reads 7.1
